testedTarget: UniProt P29275
Sequence (P29275 whole entry): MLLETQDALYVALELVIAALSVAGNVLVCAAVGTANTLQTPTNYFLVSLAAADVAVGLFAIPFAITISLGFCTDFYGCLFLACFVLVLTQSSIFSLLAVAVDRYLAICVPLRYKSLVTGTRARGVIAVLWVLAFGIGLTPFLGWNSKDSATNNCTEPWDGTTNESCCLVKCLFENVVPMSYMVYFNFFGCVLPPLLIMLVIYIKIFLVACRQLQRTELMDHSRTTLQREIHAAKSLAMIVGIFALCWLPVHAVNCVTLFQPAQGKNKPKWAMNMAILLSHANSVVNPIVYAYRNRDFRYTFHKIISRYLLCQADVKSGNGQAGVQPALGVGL
assaySummary: Percent inhibition of human adenosine A2b receptor expressed in CHO cells
Type: cell-based
Parameters: concentration or dose not given beside the values
conditionParameters: concentration not given here
measuredAttribute: inhibition (%)

- c1ccc(CNc2nc3ccccc3c3nn(-c4ccccc4)cc23)cc1: 1

1 = Oc1nc2ccccc2c2nn(-c3ccccc3Cl)cc12
2 = COc1ccc(-n2cc3c(O)nc4ccccc4c3n2)cc1
Enquiry: Quick check, higher inhibition between 1 and 2 ? In your reply, give the label of the chosen option.
Return: 1
(1: 8%, 2: 2%)

I = COc1nc2ccccc2c2nn(-c3ccccc3)cc12
II = c1ccc(-n2cc3cnc4ccccc4c3n2)cc1
Enquiry: Quick check, higher inhibition between I and II ? In your reply, give the label of the chosen option.
Return: I
(I: 10%, II: 1%)

a = CCc1ccc(-n2cc3c(O)nc4ccccc4c3n2)cc1
b = Oc1nc2ccccc2c2nn(-c3ccccc3)cc12
c = Cc1ccc(-n2cc3c(O)nc4ccccc4c3n2)cc1
Enquiry: Output the entries ranked by inhibition from maximum down to minimum. Answer by listing the labels in the requested order.
Return: a, c, b

I = Oc1nc2ccccc2c2nn(-c3ccc(Cl)cc3)cc12
II = Sc1nc2ccccc2c2nn(-c3ccccc3)cc12
Enquiry: Problem: Given the entries I and II , determine which has the lower reported inhibition. In your reply, give the label of the chosen option.
Return: I

====

testedTarget: Adenosine receptor A2a (Homo sapiens, UniProt P29274)
Sequence (P29274 whole entry): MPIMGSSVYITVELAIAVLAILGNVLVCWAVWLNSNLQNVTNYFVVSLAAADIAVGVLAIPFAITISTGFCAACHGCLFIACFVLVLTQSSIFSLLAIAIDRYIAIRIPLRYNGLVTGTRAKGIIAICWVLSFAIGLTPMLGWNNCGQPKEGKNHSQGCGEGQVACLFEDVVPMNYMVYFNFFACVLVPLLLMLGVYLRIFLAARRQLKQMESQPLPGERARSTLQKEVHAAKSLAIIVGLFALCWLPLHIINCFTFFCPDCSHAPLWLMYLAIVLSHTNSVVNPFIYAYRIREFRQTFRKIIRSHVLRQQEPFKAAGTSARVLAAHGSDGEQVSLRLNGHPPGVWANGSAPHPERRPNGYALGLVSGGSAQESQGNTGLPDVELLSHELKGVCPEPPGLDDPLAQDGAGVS
assaySummary: Percent inhibition of [3H]ZM-241385 binding to human adenosine 2Aa receptor expressed in CHO cells; (n=3 - 6)
Type: cell-based
Set-up: concentration or dose not given beside the values
conditionParameters: concentration not given here
measuredAttribute: inhibition (%)

* Oc1nc2ccccc2c2nn(-c3ccccc3)cc12 | 2
* CCc1ccc(-n2cc3c(O)nc4ccccc4c3n2)cc1 | 1
* COc1nc2ccccc2c2nn(-c3ccccc3)cc12 | 5

a = Cc1ccc(-n2cc3c(O)nc4ccccc4c3n2)cc1
b = Sc1nc2ccccc2c2nn(-c3ccccc3)cc12
Enquiry: Problem: Given the entries a and b , determine which has the lower reported inhibition. In your reply, give the label of the chosen option.
Return: a
(a: 1%, b: 8%)

====

testedTarget: UniProt P30542
Sequence (P30542 whole entry): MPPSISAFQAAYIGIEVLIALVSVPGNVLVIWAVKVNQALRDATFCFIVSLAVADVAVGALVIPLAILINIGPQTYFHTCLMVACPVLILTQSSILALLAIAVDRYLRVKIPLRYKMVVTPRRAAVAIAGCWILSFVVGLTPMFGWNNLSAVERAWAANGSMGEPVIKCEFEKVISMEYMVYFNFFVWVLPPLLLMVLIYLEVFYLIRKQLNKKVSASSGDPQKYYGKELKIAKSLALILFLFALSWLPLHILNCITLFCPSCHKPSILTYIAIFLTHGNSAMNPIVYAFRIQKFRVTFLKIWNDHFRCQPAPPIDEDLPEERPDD
assaySummary: Percent inhibition [3H]DPCPX binding to human adenosine A1 receptor expressed in CHO cells; (n=3 - 6)
Assay type: cell-based
Parameters: concentration or dose not given beside the values
conditionParameters: concentration not given here
measuredAttribute: inhibition (%)

P = Oc1nc2ccccc2c2nn(-c3ccc(F)cc3)cc12
Q = Oc1nc2ccccc2c2nn(-c3ccc(Cl)cc3)cc12
Enquiry: Problem: Given the entries P and Q , determine which has the lower reported inhibition. In your reply, give the label of the chosen option.
Return: Q
(Q: 4%, P: 10%)

P = COc1nc2ccccc2c2nn(-c3ccccc3)cc12
Q = c1ccc(-n2cc3cnc4ccccc4c3n2)cc1
R = COc1ccc(-n2cc3c(O)nc4ccccc4c3n2)cc1
S = Cc1ccc(-n2cc3c(O)nc4ccccc4c3n2)cc1
Enquiry: Output the entries ranked by inhibition from maximum down to minimum. Answer by listing the labels in the requested order.
Return: P, Q, S, R
(P: 16%, Q: 5%, S: 3%, R: 1%)

1 = Sc1nc2ccccc2c2nn(-c3ccccc3)cc12
2 = c1ccc(CNc2nc3ccccc3c3nn(-c4ccccc4)cc23)cc1
Enquiry: Quick check, higher inhibition between 1 and 2 ? In your reply, give the label of the chosen option.
Return: 1

a = CCc1ccc(-n2cc3c(O)nc4ccccc4c3n2)cc1
b = Oc1nc2ccccc2c2nn(-c3ccccc3Cl)cc12
Enquiry: Problem: Given the entries a and b , determine which has the lower reported inhibition. In your reply, give the label of the chosen option.
Return: b
(b: 3%, a: 12%)

====

testedTarget: Adenosine receptor A3 (Homo sapiens, UniProt P0DMS8)
Sequence (P0DMS8 whole entry): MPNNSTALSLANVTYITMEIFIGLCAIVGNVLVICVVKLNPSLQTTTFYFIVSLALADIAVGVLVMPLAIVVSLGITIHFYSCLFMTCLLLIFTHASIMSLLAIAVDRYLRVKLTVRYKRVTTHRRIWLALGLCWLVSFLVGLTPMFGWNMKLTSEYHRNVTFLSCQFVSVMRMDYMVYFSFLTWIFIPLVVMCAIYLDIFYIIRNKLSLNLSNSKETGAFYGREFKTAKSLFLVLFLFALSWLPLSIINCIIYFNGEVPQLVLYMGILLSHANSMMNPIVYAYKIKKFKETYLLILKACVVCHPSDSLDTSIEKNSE
assaySummary: Inhibition of [3H]MRE3008-F20 binding to human adenosine A3 receptor expressed in CHO cells; (n=3 - 6)
Assay type: cell-based
measuredAttribute: Ki (nM)

Example results:
• Oc1nc2ccccc2c2nn(-c3ccccc3)cc12 = 27
• COc1nc2ccccc2c2nn(-c3ccccc3)cc12 = 166
• Sc1nc2ccccc2c2nn(-c3ccccc3)cc12 = 220
• CCc1ccc(-n2cc3c(=O)[nH]c4ccccc4c3n2)cc1 = 157
• Oc1nc2ccccc2c2nn(-c3ccc(Cl)cc3)cc12 = 19

1 = Oc1nc2ccccc2c2nn(-c3ccc(F)cc3)cc12
2 = c1ccc(-n2cc3cnc4ccccc4c3n2)cc1
3 = COc1ccc(-n2cc3c(O)nc4ccccc4c3n2)cc1
4 = Oc1nc2ccccc2c2nn(-c3ccccc3Cl)cc12
5 = c1ccc(CNc2nc3ccccc3c3nn(-c4ccccc4)cc23)cc1
Enquiry: Output the entries ranked by Ki from maximum down to minimum. Answer by listing the labels in the requested order.
Return: 2, 5, 4, 1, 3

====

testedTarget: Adenosine receptor A3 (Homo sapiens)
assaySummary: Inhibition of cAMP accumulation in human adenosine A3 receptor assay as inhibition of Cl-IB-MECA
Assay type: functional
pKi: −log10 of the molar value.
measuredAttribute: pKi

• COc1ccc(-n2cc3c(O)nc4ccccc4c3n2)cc1 = 7.38
• Oc1nc2ccccc2c2nn(-c3ccccc3)cc12 = 7.26

====

testedTarget: Adenosine receptor A2a (Homo sapiens, UniProt P29274)
assaySummary: Percent inhibition of [3H]ZM-241385 binding to human adenosine 2Aa receptor expressed in CHO cells; (n=3 - 6)
Format: cell-based
Set-up: concentration or dose not given beside the values
conditionParameters: concentration not given here
measuredAttribute: inhibition (%)

* Oc1nc2ccccc2c2nn(-c3ccc(Cl)cc3)cc12 | 1
* COc1ccc(-n2cc3c(O)nc4ccccc4c3n2)cc1 | 1

I = Oc1nc2ccccc2c2nn(-c3ccccc3Cl)cc12
II = c1ccc(CNc2nc3ccccc3c3nn(-c4ccccc4)cc23)cc1
III = c1ccc(-n2cc3cnc4ccccc4c3n2)cc1
IV = Oc1nc2ccccc2c2nn(-c3ccc(F)cc3)cc12
Enquiry: # rank by inhibition, ascending (min first) Answer by listing the labels in the requested order.
Return: I, II, III, IV
(I: 1%, II: 2%, III: 3%, IV: 10%)

Just for reference, ChEMBL document CHEMBL1140344 is where these values come from.
